# experiment_description: BET inhibitor-based combinations targeting novel dependencies in MECOM-rearranged (r) AML: OCI-AML3 cell line (AID 2202232); also: nearly all actives have a fitted effect of over 35% in size
# reported_conditions: CellTiter-Glo luminescence, 48 h; OCI-AML3 viability; series mostly up to 46 µM
Inconclusive results are not listed. The source made the active and inactive calls. Calls follow the shape of the dose curve; as a rule, active = well fitted inhibition curve with a large enough effect; inconclusive = small, poorly fitted or top-dose-only effect; inactive = no such curve, though single readings can be large or run the other way.
Write down the outcome that applies. Available outcomes: 1.0 = active, 0.0 = inactive

For orientation, consider the following solved cases.
INSERT INTO assay_data (compound, group_label) VALUES
  ('Cc1cnc(NC(=O)c2cc(Oc3cnc(C(=O)N(C)C)nc3)c3cc(C)oc3c2)cn1', 0.0),
  ('COc1ccc(-c2cc(C(O)C3CCCCN3)c3ccccc3n2)cc1 (centres undefined)', 1.0),
  ('O=C1NC(=O)/C(=C/c2cccc(C(F)(F)F)c2)S1', 0.0),
  ('Nc1nc(N)c2nc(-c3cccc(Cl)c3)c(N)nc2n1', 1.0),
  ('COc1ccc2c(c1)c(C1=C(c3c[nH]c4ccccc34)C(=O)NC1=O)cn2CCCN(C)C', 1.0);

Qu. In this assay, the call recorded for `N#C/C(=C(/N)Sc1ccc(N)cc1)c1ccccc1C(F)(F)F` was what?
Ans. 1.0

Qu. In this assay, the call recorded for `CN1CCN(c2ccc3nc(-c4cc(C(C)(C)C)c(OCCCC(=O)NCCCN=[N+]=[N-])c(C(C)(C)C)c4)[nH]c3c2)CC1` was what?
Ans. 1.0

Qu. In this assay, the call recorded for `O=C(NOCCO)c1ccc2cncn2c1Nc1ccc(I)cc1F` was what?
Ans. 1.0

Qu. In this assay, the call recorded for `Cc1ncsc1-c1ccc([C@H](C)NC(=O)[C@@H]2C[C@@H](O)CN2C(=O)[C@@H](NC(=O)COCCCOCCNC(=O)C[C@@H]2N=C(c3ccc(Cl)cc3)c3c(sc(C)c3C)-n3c(C)nnc32)C(C)(C)C)cc1` was what?
Ans. 1.0

###

# experiment_description: BET inhibitor-based combinations targeting novel dependencies in MECOM-rearranged (r) AML: MV-4-11 cell line (AID 2202233); also: nearly all actives have a fitted effect of over 45% in size; also: potency is read from the fitted curve at half-maximal effect
# reported_conditions: MV-4-11 AML viability, CellTiter-Glo luminescence, 48 h; series mostly up to 46 µM
Records with an inconclusive call do not appear. Activity calls are given as the source filed them. Calls follow the shape of the dose curve; as a rule, active = well fitted inhibition curve with a large enough effect; inconclusive = small, poorly fitted or top-dose-only effect; inactive = no such curve, though single readings can be large or run the other way.
endpoint_name: Potency

Guide cases for Potency, answers given:
INSERT INTO assay_data (compound, endpoint_name, result) VALUES
  ('CN(C)C(N)=NC(=N)N', 'Potency', 'inactive'),
  ('O=[N+]([O-])c1ccc(O)c2ncccc12', 'Potency', '13.2 µM (active)'),
  ('CCN1CCN(Cc2ccc(NC(=O)Nc3ccc(Oc4cc(NC)ncn4)cc3)cc2C(F)(F)F)CC1', 'Potency', '0.0023 µM (active)'),
  ('C=CC(=O)N1CCC[C@@H](n2nc(-c3ccc(Oc4ccccc4)cc3)c3c(N)ncnc32)C1', 'Potency', '2.95 µM (active)'),
  ('O=C(NOCCO)c1ccc2cncn2c1Nc1ccc(I)cc1F', 'Potency', '0.742 µM (active)'),
  ('COC(=O)c1ccc([C@H]2c3[nH]c4ccccc4c3C[C@H](C(=O)OC)N2C(=O)CCl)cc1', 'Potency', '0.833 µM (active)');

Noted for `N=C(N)c1ccc(OCCCCCOc2ccc(C(=N)N)cc2)cc1` : its Potency reads 13.2 µM (active)

Noted for Cc1nc2cccc(N)c2c(=O)n1C1CCC(=O)NC1=O (stereo unspecified) : its Potency reads inactive

Noted for `C=CCN(/C=C1\C(=O)O[C@@H](COC)[C@]2(C)C1=C(O)C(=O)C1=C2[C@@H](OC(C)=O)C[C@]2(C)C(=O)CC[C@H]12)CC=C` : its Potency reads 20.9 µM (active)

Noted for `[O-][n+]1cccc(-c2nc3c(Cl)cccc3cc2[C@@H](Nc2ncnc3cccnc23)C(F)(F)F)c1` : its Potency reads 8.33 µM (active)

Noted for `CN(C)Cc1cccc(N=C(c2ccccc2)c2c(O)[nH]c3cc(C(=O)N(C)C)ccc23)c1` : its Potency reads 6.61 µM (active)

Noted for `Cc1ccc2cc(-c3c(C)ccc(C(=O)c4c(-c5ccccc5)n(C)n(-c5ccccc5)c4=O)c3N)ccc2n1` : its Potency reads inactive

Noted for `COCc1c(-c2ccc(NC(=O)Nc3cc(C(F)(F)F)ccc3F)c(F)c2)c2c(N)ncnn2c1CN1CCOCC1` : its Potency reads 0.0263 µM (active)

Noted for `C=CCNC1=C2C[C@@H](C)C[C@H](OC)[C@H](O)[C@@H](C)/C=C(\C)[C@H](OC(N)=O)[C@@H](OC)/C=C\C=C(/C)C(=O)NC(=CC1=O)C2=O` : its Potency reads 1.86 µM (active)
